- assay-system: Gal3 (Human Galectin-3) in THP-1 cells (Homo sapiens, UniProt P17931)
- Construct: host or cells: THP-1
- Sequence (P17931 whole entry): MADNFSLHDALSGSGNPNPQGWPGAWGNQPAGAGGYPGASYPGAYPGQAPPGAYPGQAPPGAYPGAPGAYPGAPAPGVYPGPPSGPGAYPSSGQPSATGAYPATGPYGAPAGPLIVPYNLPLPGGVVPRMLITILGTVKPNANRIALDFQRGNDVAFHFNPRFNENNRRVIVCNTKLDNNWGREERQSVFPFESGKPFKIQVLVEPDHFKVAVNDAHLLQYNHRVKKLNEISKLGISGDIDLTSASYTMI
- assay-protocol: ELISA Gal3 Degradation Assay in THP-1 Cells
- Assay type: cell-based
- conditions: 48 hours, culture media Gal3 by ELISA, test 1, read-out: Supernatant (IC50) test 1
pIC50: −log10 of the molar value.
readout-name: pIC50

compound	assay-system	test-value
Cc1nc([C@@H]2O[C@H](CO)[C@H](O)[C@H](n3cc(-c4cc(F)c(Cl)c(F)c4)nn3)[C@H]2OCC(=O)N2CCC(Oc3ccc(C(=O)Nc4ccc5c(c4)CN(C4CCC(=O)NC4=O)C5=O)cc3)CC2)n(-c2cc(Cl)ccc2C(F)(F)F)n1 (stereo partly drawn) [Example 31]	Gal3 (Human Galectin-3) in THP-1 cells (Homo sapiens, UniProt P17931)	7.30

I: Cc1nc([C@@H]2O[C@H](CO)[C@H](O)[C@H](n3cc(-c4cc(F)c(Cl)c(F)c4)nn3)[C@H]2OCC(=O)NCCOCC(=O)NCc2ccc(S(=O)(=O)Nc3ccc(C)c4c(C#N)c[nH]c34)cc2)n(-c2cc(Cl)ccc2C(F)(F)F)n1 [Example 22]
II: Cc1nc([C@@H]2O[C@H](CO)[C@H](O)[C@H](n3cc(-c4cc(F)c(Cl)c(F)c4)nn3)[C@H]2OCCOc2ccc(C(=O)Nc3ccc4c(c3)CN(C3CCC(=O)NC3=O)C4=O)cc2)n(-c2cc(Cl)ccc2C(F)(F)F)n1 (stereo partly drawn) [Example 25]
Query: I'm curious, which of these has a smaller pIC50 number: I or II ? Response format: the label of the selected entry.
Result: I
(I: 5.47, II: 5.77)

---

- assay-system: Gal3 (Human Galectin-3) in THP-1 cells (Homo sapiens, UniProt P17931)
- Construct: host or cells: THP-1
- assay-protocol: ELISA Gal3 Degradation Assay in THP-1 Cells
- Assay type: cell-based
- conditions: 48 hours, culture media Gal3 by ELISA, test 2, read-out: Supernatant (IC50) test 2
pIC50: −log10 of the molar value.
readout-name: pIC50

Some solved entries appear below for comparison.
molecule	assay-system	readout-name	test-value
Cc1nc([C@@H]2O[C@H](CO)[C@H](O)[C@H](n3cc(-c4cc(F)c(Cl)c(F)c4)nn3)[C@H]2OCC(=O)NCCOCC(=O)NCc2ccc(S(=O)(=O)Nc3ccc(C)c4c(C#N)c[nH]c34)cc2)n(-c2cc(Cl)ccc2C(F)(F)F)n1	Gal3 (Human Galectin-3) in THP-1 cells (Homo sapiens, UniProt P17931)	pIC50	5.48
Cc1nc([C@@H]2O[C@H](CO)[C@H](O)[C@H](n3cc(-c4cc(F)c(Cl)c(F)c4)nn3)[C@H]2OCC(=O)N2CCC(Oc3ccc(C(=O)Nc4ccc5c(c4)CN(C4CCC(=O)NC4=O)C5=O)cc3)CC2)n(-c2cc(Cl)ccc2C(F)(F)F)n1 (stereo partly shown)	Gal3 (Human Galectin-3) in THP-1 cells (Homo sapiens, UniProt P17931)	pIC50	7.85

P: Cc1nc([C@@H]2O[C@H](CO)[C@H](O)[C@H](n3cc(-c4cc(F)c(Cl)c(F)c4)nn3)[C@H]2OCCOc2ccc(C(=O)Nc3ccc4c(c3)CN(C3CCC(=O)NC3=O)C4=O)cc2)n(-c2cc(Cl)ccc2C(F)(F)F)n1 (stereo partly shown)
Q: Cc1nc([C@@H]2O[C@H](CO)[C@H](O)[C@H](n3cc(-c4cc(F)c(Cl)c(F)c4)nn3)[C@H]2OCC(=O)N2CC(COc3ccc(C(=O)Nc4ccc5c(c4)C(=O)N(C4CCC(=O)NC4=O)C5)cc3)C2)n(-c2cc(Cl)ccc2C(F)(F)F)n1 (stereo partly shown)
Query: Pick one: P or Q . Which has the bigger pIC50 number? Response format: the label of the selected entry.
Result: Q
(Q: 7.57, P: 6.28)
